For each entry below, report its IC50 value.
Just the number in nM, nothing appended.

IN: # return IC50 of CC(C(=O)Nc1cc(-c2[nH]c3c(c2-c2ccc(F)cc2)C(=O)N(C)CC3CC(F)(F)F)ccn1)c1ccc(F)cc1 (stereo not drawn) [Example 21] (system: CSNK1A1 (Homo sapiens (Human), UniProt P48729))
Sequence (P48729 whole entry): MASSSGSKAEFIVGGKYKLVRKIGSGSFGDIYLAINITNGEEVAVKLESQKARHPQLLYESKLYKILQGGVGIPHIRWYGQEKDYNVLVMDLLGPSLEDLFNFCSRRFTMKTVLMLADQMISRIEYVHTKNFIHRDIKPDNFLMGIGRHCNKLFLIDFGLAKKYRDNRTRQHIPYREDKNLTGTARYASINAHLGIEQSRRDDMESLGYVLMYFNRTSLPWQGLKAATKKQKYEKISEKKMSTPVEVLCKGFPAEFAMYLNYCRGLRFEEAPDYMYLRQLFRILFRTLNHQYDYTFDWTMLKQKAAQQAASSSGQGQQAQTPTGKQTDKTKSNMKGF
OUT: 8.6

IN: # return IC50 of CN1CCc2[nH]c(-c3ccnc(NC(=O)C(CC(F)F)c4ccc(F)cc4)c3)c(-c3cccnc3)c2C1=O (single isomer, unassigned) [Example 10] (system: CSNK1A1 (Homo sapiens (Human), UniProt P48729))
OUT: 110

IN: # return IC50 of CC1(C)Cc2[nH]c(-c3ccnc(NC(=O)Cc4ccc(F)cc4)c3)c(-c3ccccc3F)c2C(=O)N1 [Example 84] (system: CSNK1A1 (Homo sapiens (Human), UniProt P48729))
OUT: 3.4

IN: # return IC50 of Cn1cc(CC(F)(F)F)c2[nH]c(-c3ccnc(NC(=O)C(CC(F)F)c4ccc(F)cc4)c3)c(-c3ccccc3)c2c1=O (single isomer, unassigned; (-)) [Example 19] (system: CSNK1A1 (Homo sapiens (Human), UniProt P48729))
OUT: 22

IN: # return IC50 of CN1CCc2[nH]c(-c3ccnc(NC(=O)C(CC(F)F)c4ccc(F)cc4)c3)c(-c3ccc(F)cc3F)c2C1=O (single isomer, unassigned) [Example 67] (system: CSNK1A1 (Homo sapiens (Human), UniProt P48729))
OUT: 16

IN: # return IC50 of CC(C(=O)Nc1cc(-c2[nH]c3ccn(C)c(=O)c3c2-c2ccsc2)ccn1)c1ccc(F)cc1 (racemic) [Example 131] (system: CSNK1A1 (Homo sapiens (Human), UniProt P48729))
OUT: 7

IN: # return IC50 of O=C(Cc1ccc(F)cc1)Nc1cc(-c2[nH]c3cc[nH]c(=O)c3c2-c2ccccc2)ccn1 [Example 73] (system: CSNK1A1 (Homo sapiens (Human), UniProt P48729))
OUT: 1.9

IN: # return IC50 of CC(C(=O)Nc1cc(-c2[nH]c3c(c2-c2ccc(F)cc2)C(=O)NC(C)(C)C3)ccn1)c1ccc(F)cc1 (single isomer, unassigned) [Example 95] (system: CSNK1A1 (Homo sapiens (Human), UniProt P48729))
OUT: 14

IN: # return IC50 of CC(C(=O)Nc1cc(-c2[nH]c3ccn(C)c(=O)c3c2-c2ccc(F)nc2)ccn1)c1ccc(F)cc1 (racemic) [Example 145] (system: CSNK1A1 (Homo sapiens (Human), UniProt P48729))
OUT: 9.7

IN: # return IC50 of CN1CC(C)(C)c2[nH]c(-c3ccnc(NC(=O)C(CC(F)F)c4ccc(F)cc4)c3)c(-c3ccccc3)c2C1=O (single isomer, unassigned; (+)) [Example 152] (system: CSNK1A1 (Homo sapiens (Human), UniProt P48729))
OUT: 4.3

IN: # return IC50 of CC(C(=O)Nc1cc(-c2[nH]c3ccn(C)c(=O)c3c2-c2cccnc2F)ccn1)c1ccc(F)cc1 (racemic) [Example 110] (system: CSNK1A1 (Homo sapiens (Human), UniProt P48729))
OUT: 30

IN: # return IC50 of CC(C(=O)Nc1cc(-c2[nH]c3c(c2-c2cccnc2)C(=O)NC(C)(C)C3)ccn1)c1ccc(F)cc1 (single isomer, unassigned) [Example 99] (system: CSNK1A1 (Homo sapiens (Human), UniProt P48729))
OUT: 4.3

====

A short record of IC50 observed with CSNK1A1 (Homo sapiens (Human)) follows.
Answers without a unit are incomplete; give the number and then its unit.

IN: State its IC50 for this compound: CC(C(=O)Nc1cc(-c2[nH]c3c(c2-c2ccccc2)C(=O)N(C)CC3)ccn1)c1ccncc1 (stereo not shown) [Example 154]
OUT: 5.1 nM

IN: State its IC50 for this compound: O=C(Nc1cc(-c2[nH]c3c(Cl)cn(C4CC4)c(=O)c3c2-c2ccc(F)cc2)ccn1)C(CC(F)F)c1ccc(F)cc1 (racemic) [Example 161]
OUT: 20 nM

IN: State its IC50 for this compound: Cc1ccc(-c2c(-c3ccnc(NC(=O)C(C)c4ccc(F)cc4)c3)[nH]c3c2C(=O)NC(C)(C)C3)cc1 (racemic) [Example 91]
OUT: 7.7 nM

IN: State its IC50 for this compound: Cc1cccc(-c2c(-c3ccnc(NC(=O)Cc4ccc(F)cc4)c3)[nH]c3c2C(=O)NC(C)(C)C3)c1 [Example 86]
OUT: 4 nM

IN: State its IC50 for this compound: CC(C(=O)Nc1cc(-c2[nH]c3ccn(C)c(=O)c3c2-c2cccc(Cl)c2)ccn1)c1ccc(F)cc1 (racemic) [Example 106]
OUT: 9.2 nM

IN: State its IC50 for this compound: CN1CCc2[nH]c(-c3ccnc(NC(=O)Cc4ccc(F)cc4)c3)c(-c3ccccc3)c2C1=O [Example 1]
OUT: 1.3 nM

IN: State its IC50 for this compound: CC(C(=O)Nc1cc(-c2[nH]c3c(CC(F)(F)F)cn(C)c(=O)c3c2-c2ccc(F)cc2)ccn1)c1ccc(F)cc1 (single isomer, unassigned; (-)) [Example 23]
OUT: 85 nM

IN: State its IC50 for this compound: CC(C(=O)Nc1cc(-c2[nH]c3ccn(C)c(=O)c3c2-c2cccc(O)c2)ccn1)c1ccc(F)cc1 (racemic) [Example 113]
OUT: 32 nM

IN: State its IC50 for this compound: CC(C(=O)Nc1cc(-c2[nH]c3ccn(C)c(=O)c3c2-c2cc(F)cc(F)c2)ccn1)c1ccc(F)cc1 (racemic) [Example 121]
OUT: 7 nM

IN: State its IC50 for this compound: CC(C(=O)Nc1cc(-c2[nH]c3ccn(C)c(=O)c3c2-c2ccoc2)ccn1)c1ccc(F)cc1 (racemic) [Example 115]
OUT: 2.2 nM

IN: State its IC50 for this compound: CC(C(=O)Nc1cc(-c2[nH]c3ccn(C)c(=O)c3c2-c2ccnc(N)c2)ccn1)c1ccc(F)cc1 (racemic) [Example 126]
OUT: 55 nM

IN: State its IC50 for this compound: CC1(C)CNC(=O)c2c1[nH]c(-c1ccnc(NC(=O)C(CC(F)F)c3ccc(F)cc3)c1)c2-c1ccccc1 (racemic) [Example 43]
OUT: 2.6 nM

IN: State its IC50 for this compound: COCCNC(=O)c1ccc(CC(=O)Nc2cc(-c3[nH]c4c(c3-c3ccc(F)cc3)C(=O)N(C)CC4)ccn2)cc1 [Example 140]
OUT: 1.6 nM

====

molecular target: CSNK1D (Homo sapiens (Human)); test: CSNK1D Assay (ADP-Glo, 1 μM ATP); format: biochemical; settings: median, read-out: CSNK1D IC50 [mol/l] (median)
Sequence (P48730 whole entry): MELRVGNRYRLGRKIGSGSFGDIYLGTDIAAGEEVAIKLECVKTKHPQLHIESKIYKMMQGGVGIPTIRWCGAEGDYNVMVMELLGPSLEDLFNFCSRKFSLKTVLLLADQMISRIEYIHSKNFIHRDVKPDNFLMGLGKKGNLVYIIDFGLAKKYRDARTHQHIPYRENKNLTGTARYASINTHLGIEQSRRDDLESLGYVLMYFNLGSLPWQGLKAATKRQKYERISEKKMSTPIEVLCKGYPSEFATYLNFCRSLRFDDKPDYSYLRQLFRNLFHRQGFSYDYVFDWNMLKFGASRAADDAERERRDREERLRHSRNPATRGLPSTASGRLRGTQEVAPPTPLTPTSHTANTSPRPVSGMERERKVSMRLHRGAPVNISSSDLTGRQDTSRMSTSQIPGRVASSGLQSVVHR
TRUE if IC50 is below 4 nM. FALSE if not; exact matches included in FALSE.

IN: Does the reported IC50 of the following compound sit strictly below 4 nM? CN1CCc2[nH]c(-c3ccnc(NC(=O)C(CC(F)F)c4ccc(F)cc4)c3)c(-c3ccc(F)cc3F)c2C1=O (racemic) [Example 66]
OUT: TRUE

IN: Does the reported IC50 of the following compound sit strictly below 4 nM? CC(C(=O)Nc1cc(-c2[nH]c3c(c2-c2ccccc2)C(=O)N(C)CC3)ccn1)c1ccncc1 (racemic) [Example 153]
OUT: TRUE

IN: Does the reported IC50 of the following compound sit strictly below 4 nM? CC(C(=O)Nc1cc(-c2[nH]c3c(c2-c2cccnc2)C(=O)NC(C)(C)C3)ccn1)c1ccc(F)cc1 (single isomer, unassigned) [Example 98]
OUT: FALSE

IN: Does the reported IC50 of the following compound sit strictly below 4 nM? COCCN(C)C(=O)c1ccc(CC(=O)Nc2cc(-c3[nH]c4c(c3-c3ccc(F)cc3)C(=O)N(C)CC4)ccn2)cc1 [Example 141]
OUT: TRUE

IN: Does the reported IC50 of the following compound sit strictly below 4 nM? CC(C(=O)Nc1cc(-c2[nH]c3ccn(C)c(=O)c3c2-c2ccccc2)ccn1)c1ccc(F)cc1 (single isomer, unassigned) [Example 105]
OUT: TRUE

IN: Does the reported IC50 of the following compound sit strictly below 4 nM? Cn1ccc2[nH]c(-c3ccnc(NC(=O)C(CC(F)F)c4ccc(F)cc4)c3)c(-c3ccc(F)cc3)c2c1=O (single isomer, unassigned; (+)) [Example 109]
OUT: TRUE

IN: Does the reported IC50 of the following compound sit strictly below 4 nM? CC(C(=O)Nc1cc(-c2[nH]c3ccn(C)c(=O)c3c2-c2cc(F)cc(F)c2)ccn1)c1ccc(F)cc1 (racemic) [Example 121]
OUT: FALSE

IN: Does the reported IC50 of the following compound sit strictly below 4 nM? Cc1ccc(-c2c(-c3ccnc(NC(=O)C(C)c4ccc(F)cc4)c3)[nH]c3c2C(=O)NC(C)(C)C3)cc1 (racemic) [Example 91]
OUT: FALSE

IN: Does the reported IC50 of the following compound sit strictly below 4 nM? CN1CCc2[nH]c(-c3ccnc(NC(=O)C(CC(F)F)c4ccc(F)cc4)c3)c(-c3ccc(F)cc3F)c2C1=O (single isomer, unassigned) [Example 67]
OUT: FALSE

IN: Does the reported IC50 of the following compound sit strictly below 4 nM? CC(C(=O)Nc1cc(-c2[nH]c3ccn(C)c(=O)c3c2-c2ccccc2O)ccn1)c1ccc(F)cc1 (racemic) [Example 124]
OUT: FALSE

IN: Does the reported IC50 of the following compound sit strictly below 4 nM? CN1CCc2[nH]c(-c3ccnc(NC(=O)C(CC(F)F)c4ccc(F)cc4)c3)c(-c3cc(F)ccc3C#N)c2C1=O (racemic) [Example 128]
OUT: FALSE

IN: Does the reported IC50 of the following compound sit strictly below 4 nM? Cn1ccc2[nH]c(-c3ccnc(NC(=O)Cc4ccc(F)cc4)c3)c(-c3ccccn3)c2c1=O [Example 146]
OUT: FALSE

IN: Does the reported IC50 of the following compound sit strictly below 4 nM? CN1CC(C)(C)c2[nH]c(-c3ccnc(NC(=O)C(CC(F)F)c4ccc(F)cc4)c3)c(-c3ccccc3)c2C1=O (single isomer, unassigned; (-)) [Example 151]
OUT: FALSE
